# assayed system: PCSK9Δhelix (Homo sapiens)
# Construct: Human PCSK9 construct M1-Q692 with an engineered TEV site (residue deletion Y166, R167); made in house; host or cells: CHO
# Sequence (Q8NBP7 with tags, fused parts or gaps limits assumed): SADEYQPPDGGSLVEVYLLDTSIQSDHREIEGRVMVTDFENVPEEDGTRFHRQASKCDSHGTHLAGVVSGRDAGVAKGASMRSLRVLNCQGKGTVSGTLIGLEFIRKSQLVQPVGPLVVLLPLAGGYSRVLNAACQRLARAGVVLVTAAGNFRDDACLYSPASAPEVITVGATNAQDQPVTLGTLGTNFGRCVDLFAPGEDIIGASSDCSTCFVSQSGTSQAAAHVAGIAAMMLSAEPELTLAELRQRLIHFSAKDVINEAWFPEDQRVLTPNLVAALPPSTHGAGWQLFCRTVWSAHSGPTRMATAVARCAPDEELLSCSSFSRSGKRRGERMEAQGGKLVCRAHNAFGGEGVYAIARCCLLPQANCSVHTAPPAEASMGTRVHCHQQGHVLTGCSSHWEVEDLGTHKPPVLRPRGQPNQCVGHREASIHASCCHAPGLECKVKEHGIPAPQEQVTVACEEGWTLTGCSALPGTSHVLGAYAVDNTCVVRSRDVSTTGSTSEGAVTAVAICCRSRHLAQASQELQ
# Sequence (Q8NBP7 31-152 partner limits assumed): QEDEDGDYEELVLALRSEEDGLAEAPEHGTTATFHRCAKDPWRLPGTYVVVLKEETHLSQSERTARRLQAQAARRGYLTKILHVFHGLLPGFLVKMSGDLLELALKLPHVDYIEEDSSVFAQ
# method summary: PCSK9Δhelix/Ab20 TR-FRET binding assay
# test parameters: TR-FRET; Table 8E, additional compounds; read-out: PCSK9Δhelix/Ab20 IC50
Square brackets hold non-standard residues; d marks the D form. Peptide text beside a SMILES is read from it. * marks the point of attachment. Desaminohistidyl = O=C(CCc1c[nH]cn1)*; hArg = N=C(N)NCCCC[C@H](N)C(=O)O; X34 = NC(=O)N1CCN(CCC(=O)*)CC1; X37 = Cc1ccc(C(=O)CCC(=O)*)cc1; X22 = O=C(C1CC(Cc2ccccc2)C1)*; X6 = O=C(Cn1ccc(=O)[nH]c1=O)*; X38 = O=C(CC1CCS(=O)(=O)C1)*; X42 = O=C(c1ccc2cc[nH]c2c1)*; X10 = Nc1cccc(CCC(=O)*)c1; Pentanoyl = CCCCC(=O)*
measurement label: pIC50
Answers are plain numbers, as −log10 of the molar value.

CC[C@H](C)[C@H](NC(=O)[C@H](CCCCNC(=N)N)NC(=O)[C@@H](NC(=O)[C@H](CC(C)C)NC(=O)[C@H](CC(N)=O)NC(=O)[C@H](Cc1c[nH]c2ccccc12)NC(C)=O)C(C)C)C(=O)NCC(=O)N[C@@H](CC(C)C)C(=O)N[C@@H](CC(C)C)C(=O)N[C@@H](CCCNC(=N)N)C(N)=O [Compound 192, Ac-WNLV(homoR)IGLLR-NH2] (Ac-WNLV[hArg]IGLLR-NH2) : 5.28
CCCCC(=O)N[C@@H](Cc1c[nH]c2ccccc12)C(=O)N[C@@H](CC(N)=O)C(=O)N[C@@H](CC(C)C)C(=O)N[C@H](C(=O)N[C@@H](CCCCNC(=N)N)C(=O)N[C@H](C(=O)NCC(=O)N[C@@H](CC(C)C)C(=O)N[C@H](C(=O)N[C@@H](CCCNC(=N)N)C(N)=O)[C@@H](C)O)[C@@H](C)CC)C(C)C [Compound 234, n-BuC(O)-WNLV(homoR)IGLTR-NH2] (Pentanoyl-WNLV[hArg]IGLTR-NH2) : 5.85
CC[C@H](C)[C@H](NC(=O)[C@H](CCCNC(=N)N)NC(=O)[C@@H](NC(=O)[C@H](CC(C)C)NC(=O)[C@H](CC(N)=O)NC(=O)[C@H](Cc1c[nH]c2ccccc12)NC(=O)Cn1ccc(=O)[nH]c1=O)C(C)C)C(=O)NCC(=O)N[C@@H](CC(C)C)C(=O)N[C@@H](CC(C)C)C(=O)N[C@@H](CCCNC(=N)N)C(N)=O [Compound 143] (X6-WNLVRIGLLR-NH2) : 4.64
CC[C@H](C)[C@H](NC(=O)[C@H](CCCNC(=N)N)NC(=O)[C@@H](NC(=O)[C@H](CC(C)C)NC(=O)[C@H](CC(N)=O)NC(=O)[C@H](Cc1c[nH]c2ccccc12)NC(=O)CC1CCS(=O)(=O)C1)C(C)C)C(=O)NCC(=O)N[C@@H](CC(C)C)C(=O)N[C@@H](CC(C)C)C(=O)N[C@@H](CCCNC(=N)N)C(N)=O (some centres unmarked) [Compound 139] (X38-WNLVRIGLLR-NH2) : 4.72
CC[C@H](C)[C@H](NC(=O)[C@H](CCCNC(=N)N)NC(=O)[C@@H](NC(=O)[C@H](CC(C)C)NC(=O)[C@H](CC(N)=O)NC(=O)[C@H](Cc1c[nH]c2ccccc12)NC(=O)CCc1cccc(N)c1)C(C)C)C(=O)NCC(=O)N[C@@H](CC(C)C)C(=O)N[C@H](C(=O)N[C@@H](CCCNC(=N)N)C(N)=O)[C@@H](C)O [Compound 164] (X10-WNLVRIGLTR-NH2) : 4.92

For every item in the list below, what is its measured pIC50?
1. CC[C@H](C)[C@H](NC(=O)[C@H](CCCCNC(=N)N)NC(=O)[C@@H](NC(=O)[C@H](CC(C)C)NC(=O)[C@H](CC(N)=O)NC(=O)[C@@H](N)Cc1c[nH]c2ccccc12)C(C)C)C(=O)NCC(N)=O [Compound 236, WNLV(homoR)IG-NH2] (H-WNLV[hArg]IG-NH2)
2. CC[C@H](C)[C@H](NC(=O)[C@H](CCCNC(=N)N)NC(=O)[C@@H](NC(=O)[C@H](CC(C)C)NC(=O)[C@H](CC(N)=O)NC(=O)[C@H](Cc1c[nH]c2ccccc12)NC(=O)CCc1c[nH]cn1)C(C)C)C(=O)NCC(=O)N[C@@H](CC(C)C)C(=O)N[C@@H](CC(C)C)C(=O)N[C@@H](CCCNC(=N)N)C(N)=O [Compound 132] (Desaminohistidyl-WNLVRIGLLR-NH2)
3. CC[C@H](C)[C@H](NC(=O)[C@H](CCCCNC(=N)N)NC(=O)[C@@H](NC(=O)[C@H](CC(C)C)NC(=O)[C@H](CC(N)=O)NC(=O)[C@H](Cc1c[nH]c2ccccc12)NC(=O)c1ccc2cc[nH]c2c1)C(C)C)C(=O)NCC(=O)N[C@@H](CC(C)C)C(=O)N[C@@H](CC(C)C)C(=O)N[C@@H](CCCNC(=N)N)C(N)=O [Compound 222] (X42-WNLV[hArg]IGLLR-NH2)
4. CC[C@H](C)[C@H](NC(=O)[C@H](CCCNC(=N)N)NC(=O)[C@@H](NC(=O)[C@H](CC(C)C)NC(=O)[C@H](CC(N)=O)NC(=O)[C@H](Cc1c[nH]c2ccccc12)NC(=O)CCC(=O)c1ccc(C)cc1)C(C)C)C(=O)NCC(=O)N[C@@H](CC(C)C)C(=O)N[C@H](C(=O)N[C@@H](CCCNC(=N)N)C(N)=O)[C@@H](C)O [Compound 165] (X37-WNLVRIGLTR-NH2)
5. CC[C@H](C)[C@H](NC(=O)[C@H](CCCNC(=N)N)NC(=O)[C@@H](NC(=O)[C@H](CC(C)C)NC(=O)[C@H](CC(N)=O)NC(=O)[C@H](Cc1c[nH]c2ccccc12)NC(=O)C1CC(Cc2ccccc2)C1)C(C)C)C(=O)NCC(=O)N[C@@H](CC(C)C)C(=O)N[C@H](C(=O)N[C@@H](CCCNC(=N)N)C(N)=O)[C@@H](C)O (some centres unmarked) [Compound 184] (X22-WNLVRIGLTR-NH2)
6. CC[C@H](C)[C@H](NC(=O)[C@H](CCCNC(=N)N)NC(=O)[C@@H](NC(=O)[C@H](CC(C)C)NC(=O)[C@H](CC(N)=O)NC(=O)[C@H](Cc1c[nH]c2ccccc12)NC(=O)CCN1CCN(C(N)=O)CC1)C(C)C)C(=O)NCC(=O)N[C@@H](CC(C)C)C(=O)N[C@@H](CC(C)C)C(=O)N[C@@H](CCCNC(=N)N)C(N)=O [Compound 131] (X34-WNLVRIGLLR-NH2)

1. 4.66
2. 5.05
3. 5.85
4. 4.74
5. 4.92
6. 5.17

These entries and their values trace back to patent US11034725B2.
